Test system: DU145 cells
Test: MTT cytotoxicity assay in DU145 cells
Format: cell-based, Human
Conditions: 72 hours incubation, read-out: IC50 in prostate cancer cells, DU145
Experimental: Cisplatin and ADIBO-COOH were used as controls. […] Cell Lines and Cell Culture. […] Cytotoxicity Analysis of Platin-CLK by MTT Assay. […] The media was changed and increasing concentrations of each compound was added. […] Final working solutions were prepared in culture media (RPMI) by keeping total DMSO percentage <1%. These were then incubated for 72 hours. […] The IC50 values were reported at ±99% confidence intervals.
Entries annotated with measured IC50
Provide the reading as a plain figure in µM.

>>> measuredresult("O=C(O)CCC(=O)NCCC(=O)N1Cc2ccccc2C#Cc2ccccc21")
284

Consider the additional compound presented here.
Ask: Which IC50 is reported with DU145 cells for this entry: N.N.[Cl][Pt][Cl] [Cisplatin, Cis-diamminedichloroplatinum(II)] ?
Reply: 6
